Target: T1, cyno CD137 (cynomolgus monkey, UniProt Q07011 24-186 (human entry), limits assumed)
T1 construct: also called cynomolgus monkey CD137
T1 chain: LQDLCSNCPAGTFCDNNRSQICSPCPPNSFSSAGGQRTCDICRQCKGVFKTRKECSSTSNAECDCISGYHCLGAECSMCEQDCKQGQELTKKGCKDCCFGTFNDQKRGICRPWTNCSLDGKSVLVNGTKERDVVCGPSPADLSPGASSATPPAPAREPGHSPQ
Assay: SPR Biacore T200, IgG captured on protein A, 25 C;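 also: antigens diluted in ACES running buffer at pH 7.4 were flowed over antibodies held on a CM3 chip bearing amine-coupled protein A, with buffer alone serving as blank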
Listing of recorded koff by entry.

Binder: dBBDu189/L119 (antibody, V domains shown, IgG format; constant regions not specified) VH: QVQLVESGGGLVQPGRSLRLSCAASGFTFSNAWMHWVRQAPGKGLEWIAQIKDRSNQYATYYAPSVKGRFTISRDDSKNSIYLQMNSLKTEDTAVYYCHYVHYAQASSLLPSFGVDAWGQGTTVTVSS VL: DIVMTQSPLSLPVTPGEPASISCTASQELVHINRFIFLHWYQQKPGQAPRLLIYKVSNRFIGVPDRFSGSGSGTDFTLKISRVEAEDVGVYYCAQGSQVPFTFGQGTKLEIK
koff (s⁻¹): 0.00122
--
Binder: dBBDu186/L098 (antibody, V domains shown, IgG format; constant regions not specified) VH: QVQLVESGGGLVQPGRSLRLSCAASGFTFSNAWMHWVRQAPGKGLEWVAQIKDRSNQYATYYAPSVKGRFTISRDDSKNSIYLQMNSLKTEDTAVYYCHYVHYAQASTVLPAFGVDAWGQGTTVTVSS VL: DIVMTQSPLSLPVTPGEPASISCAASEELVHINRYIFLHWYQQKPGQAPRLLIYKVSNRFIGVPDRFSGSGSGTDFTLKISRVEAEDVGVYYCAQGSQVPFTFGQGTKLEIK
koff (s⁻¹): 0.00119
--
Binder: dBBDu193/L127 (antibody, V domains shown, IgG format; constant regions not specified; also called dBBDu_193 dBBDu.L127) VH: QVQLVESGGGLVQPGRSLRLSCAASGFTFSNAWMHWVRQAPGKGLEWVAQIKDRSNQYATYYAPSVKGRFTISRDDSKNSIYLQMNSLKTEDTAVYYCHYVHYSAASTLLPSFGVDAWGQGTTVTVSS VL: DIVMTQSPLSLPVTPGEPASISCRASEELLHINRHIFLHWYQQKPGQAPRLLIYKVYNRFTGVPDRFSGSGSGTDFTLKISRVEAEDVGVYYCAQGTSVPFTFGQGTKLEIK
koff (s⁻¹): 0.00316
